Biological target: T1, Calpain-1
T1 chain 1: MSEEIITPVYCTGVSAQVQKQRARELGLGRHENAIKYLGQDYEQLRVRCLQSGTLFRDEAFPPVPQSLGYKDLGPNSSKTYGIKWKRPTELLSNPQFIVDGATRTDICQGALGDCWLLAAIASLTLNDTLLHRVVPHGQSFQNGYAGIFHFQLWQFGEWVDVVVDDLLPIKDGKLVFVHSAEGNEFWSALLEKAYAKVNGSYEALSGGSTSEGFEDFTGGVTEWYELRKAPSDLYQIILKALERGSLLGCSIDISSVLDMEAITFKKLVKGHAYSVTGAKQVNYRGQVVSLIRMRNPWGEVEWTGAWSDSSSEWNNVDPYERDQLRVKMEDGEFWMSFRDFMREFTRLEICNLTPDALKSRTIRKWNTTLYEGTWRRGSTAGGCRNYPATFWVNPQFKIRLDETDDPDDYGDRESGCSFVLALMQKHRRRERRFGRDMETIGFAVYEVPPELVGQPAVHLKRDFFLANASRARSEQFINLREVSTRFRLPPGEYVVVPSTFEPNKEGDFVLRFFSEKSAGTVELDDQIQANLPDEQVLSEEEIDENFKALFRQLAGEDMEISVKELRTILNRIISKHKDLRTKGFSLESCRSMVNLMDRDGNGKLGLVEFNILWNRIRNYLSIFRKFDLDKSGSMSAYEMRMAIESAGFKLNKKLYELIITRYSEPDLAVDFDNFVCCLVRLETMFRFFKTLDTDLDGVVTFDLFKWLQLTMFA
T1 chain 2: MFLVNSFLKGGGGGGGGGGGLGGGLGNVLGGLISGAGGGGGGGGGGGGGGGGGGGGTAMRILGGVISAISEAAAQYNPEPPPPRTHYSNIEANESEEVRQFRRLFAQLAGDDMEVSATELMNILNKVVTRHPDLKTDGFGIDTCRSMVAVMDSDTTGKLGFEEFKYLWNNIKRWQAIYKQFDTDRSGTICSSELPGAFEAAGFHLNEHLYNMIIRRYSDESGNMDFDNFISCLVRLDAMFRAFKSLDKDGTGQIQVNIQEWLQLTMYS
Assay: fluorescence-based enzyme inhibition assay
Positions of bridges follow the written chain, without caps; N, C: chain ends. No end group written: not given here. alpha,alpha'‑meta‑xylylene = alpha,alpha'-meta-xylylene linker (from a,a'-dibromo-meta-xylene) bridging two cysteines via bis-thioether
Endpoint Label: Ki (µM)

- Binder: "IPPKYCELFC (linker 6-10 via alpha,alpha'‑meta‑xylylene) [IPPKYCELFC (SEQ ID NO:88)]"
  Unit Info: "µM"
  Ki: 27.9
- Binder: "PPPKYCELLC (linker 6-10 via alpha,alpha'‑meta‑xylylene) [PPPKYCELLC (SEQ ID NO:73)]"
  Unit Info: "µM"
  Ki: 45.3

(a) IPPKYCALLC (linker 6-10 via alpha,alpha'‑meta‑xylylene) [IPPKYCALLC (SEQ ID NO:84)]
(b) IXPKYCELLC (Cys6 and Cys10 (i,i+4) linked by alpha,alpha'-meta-xylylene; residue 2 pf5 = pentafluorophenylalanine) [I(pf5)PKYCELLC (SEQ ID NO:77)]
Ask: Of the two listed items, which has the higher Ki? First: a Second: b Response format: the label of the selected entry.
Reply: a
(a: 28.9 µM, b: 5.09 µM)
